assay: Oral bioavailability in rat; type: ADME, organism-based; conditions: in vivo
Reported Property: bioavailability (%)
Give bare numbers, in %.

Sure, the documented bioavailability for N#CC1(NC(=O)[C@@H]2CCCC[C@H]2c2oc(-c3ccc(F)cc3)nc2-c2ccc(N3CCS(=O)(=O)CC3)cc2)CC1 is 33

* * *

assay: Clearance in dog; type: ADME, Canis lupus familiaris; conditions: in vivo
Reported Property: clearance (mL/min/kg)
Give bare numbers, in mL/min/kg.

The recorded clearance for entry N#CC1(NC(=O)[C@@H]2CCCC[C@H]2c2oc(-c3ccc(F)cc3)nc2-c2ccc(N3CCS(=O)(=O)CC3)cc2)CC1 equals 3.1

* * *

experiment: Intrinsic clearance in rat liver microsomes; format: ADME, Microsome; conditions: read-out: CLH
Reported Property: CLint scaled (mL/min/kg)
One number for each entry, in mL/min/kg.

Some solved entries appear below for comparison.
INSERT INTO results (compound, endpoint_value) VALUES
  ('N#CC1(NC(=O)[C@@H]2CCCC[C@H]2c2nn(-c3ccc(F)cc3)cc2-c2ccc(N3CCS(=O)(=O)CC3)cc2)CC1', 40.5),
  ('COc1cccc(-n2cc(-c3ccc(N4CCS(=O)(=O)CC4)cc3)c([C@@H]3CCCC[C@H]3C(=O)NC3(C#N)CC3)n2)c1', 244);

Quick note, CLint scaled for N#CC1(NC(=O)[C@@H]2CCCC[C@H]2c2nc(-c3ccc(F)cc3)sc2-c2ccc(N3CCS(=O)(=O)CC3)cc2)CC1 landed at 55.9

* * *

test: Clearance in rat; assay type: ADME; conditions: in vivo
Reported Property: clearance
Give the value; after it, write the unit.

clearance reading for N#CC1(NC(=O)[C@@H]2CCCC[C@H]2c2oc(-c3ccc(F)cc3)nc2-c2ccc(N3CCS(=O)(=O)CC3)cc2)CC1 : 13 mL/min/kg

* * *

species: Homo sapiens; test: Selectivity ratio of IC50 for Cathepsin F (unknown origin) to IC50 for Cathepsin K (unknown origin)
For each record, write down the corresponding Ratio IC50.

Use the examples below as a reference point.
INSERT INTO results (compound, reported_property, endpoint_value) VALUES
  ('N#CC1(NC(=O)[C@@H]2CC(Cl)(Cl)CC[C@H]2c2nn(CC(F)(F)F)cc2-c2ccc(C(=O)N3CCOCC3)cc2)CC1', 'Ratio IC50', 246),
  ('N#CC1(NC(=O)[C@@H]2CC(F)(F)CC[C@H]2c2nn(CC(F)(F)F)cc2-c2ccc(-c3ncco3)cc2)CC1', 'Ratio IC50', 62),
  ('N#CC1(NC(=O)[C@@H]2CC(Cl)(Cl)CC[C@H]2c2nn(CC(F)(F)F)cc2-c2ccc(N3CCS(=O)(=O)CC3)cc2)CC1', 'Ratio IC50', 314),
  ('N#CC1(NC(=O)[C@@H]2CCCC[C@H]2c2nc(-c3ccc(F)cc3)sc2-c2ccc(N3CCS(=O)(=O)CC3)cc2)CC1', 'Ratio IC50', 1430);

Consider the following items and state reported Ratio IC50 for each.
1. CS(=O)(=O)c1ccc(-c2cn(CC(F)(F)F)nc2[C@@H]2CCC(Cl)(Cl)C[C@H]2C(=O)NC2(C#N)CC2)cc1
2. CS(=O)(=O)N1CC(c2ccc(-c3cn(CC(F)(F)F)nc3[C@@H]3CCC(F)(F)C[C@H]3C(=O)NC3(C#N)CC3)cc2)C1
3. COc1cccc(-n2cc(-c3ccc(N4CCS(=O)(=O)CC4)cc3)c([C@@H]3CCCC[C@H]3C(=O)NC3(C#N)CC3)n2)c1

(A)
[40, 82, 716]

For each of the compounds below, state Ratio IC50.
1. N#CC1(NC(=O)[C@@H]2CCCC[C@H]2c2nn(CC3CC3)cc2-c2ccc(N3CCS(=O)(=O)CC3)cc2)CC1
2. N#CC1(NC(=O)[C@@H]2CCCC[C@H]2c2nn(-c3ccc(F)cc3)cc2-c2ccc(N3CCS(=O)(=O)CC3)cc2)CC1
3. N#CC1(NC(=O)[C@@H]2CC(F)(F)CC[C@H]2c2nn(CC(F)(F)F)cc2-c2ccc(N3CCS(=O)(=O)CC3)cc2)CC1
4. N#CC1(NC(=O)[C@@H]2CC(F)(F)CC[C@H]2c2nn(-c3ccc(F)cc3)cc2-c2ccc(N3CCS(=O)(=O)CC3)cc2)CC1
5. N#CC1(NC(=O)[C@@H]2CCCC[C@H]2c2oc(-c3ccc(F)cc3)nc2-c2ccc(N3CCS(=O)(=O)CC3)cc2)CC1
6. N#CC1(NC(=O)[C@@H]2CCCC[C@H]2c2nn(CC(F)(F)F)cc2-c2ccc(N3CCS(=O)(=O)CC3)cc2)CC1

(A)
1. 1180
2. 1000
3. 380
4. 50
5. 1460
6. 1280

Values compiled from ChEMBL document CHEMBL5104166.
